# Test system: DMS 273 small cell lung
# measurement-description: NCI tumour cell line growth inhibition, 48 h
reported-endpoint: TGI

Some compounds with known TGI results, for comparison:
{"columns": ["compound", "assayed-system", "observed-measurement"],
 "data": [
  ["CC(=O)OCc1cc2c(s1)C(=O)c1sccc1C2=O", "DMS 273 small cell lung", "0.299 µM"],
  ["CCOC(=O)C1=C(O)c2c(OC)ccc(OC)c2C(=O)C1=O", "DMS 273 small cell lung", "> 100 µM"],
  ["Cc1cc2c(=O)cc(-c3ccncc3)oc2c(C(=O)O)c1C", "DMS 273 small cell lung", "> 100 µM"]
]}

Q: Given the compound CCCCCCCCCCCCCCCC(=O)NCC(OCC)OCC , what is its reported TGI?
Ans: > 100 µM

Q: Given the compound COC(=O)CCSC(=O)Nc1ccccc1Cl , what is its reported TGI?
Ans: > 100 µM

Q: Given the compound CC(=O)OCC1OC(OC(C)=O)C(NC#N)C(OC(C)=O)C1OC(C)=O (stereo unspecified) , what is its reported TGI?
Ans: > 100 µM
